Test: UPLC-ESI-MS quantitation of sanggenons C and D in serum and tissue samples, acute toxicity study
Type: in vivo, BALB/c mice
Details: BALB/c, mouse, serum, oral, mice sacrificed 3 hours after the last application; read-out: average serum concentration of sanggenon C
result type: concentration at 3 h

Look up concentration at 3 h for this compound: "CC(C)=CC[C@]12Oc3cc(O)c([C@H]4C=C(C)C[C@H](c5ccc(O)cc5O)[C@H]4C(=O)c4ccc(O)cc4O)c(O)c3C(=O)[C@@]1(O)Oc1cc(O)ccc12" < 2 ng/mL

----------
Assay: UPLC-ESI-MS quantitation of sanggenons C and D in serum and tissue samples, acute toxicity study
Type: in vivo, BALB/c mice
Conditions: BALB/c, mouse, serum, oral, 30 mg/kg, MA60 30 mg/kg oral once daily 7 days, 3 h after last treatment; read-out: amount of sanggenon C in serum (dose group)
result type: concentration at 3 h

Look up concentration at 3 h for this compound: "CC(C)=CC[C@]12Oc3cc(O)c([C@H]4C=C(C)C[C@H](c5ccc(O)cc5O)[C@H]4C(=O)c4ccc(O)cc4O)c(O)c3C(=O)[C@@]1(O)Oc1cc(O)ccc12" < 9.1 ng/mL

----------
Test: UPLC-ESI-MS quantitation of sanggenons C and D in serum and tissue samples, acute toxicity study
Type: in vivo, BALB/c mice
Conditions: BALB/c, mouse, serum, oral, 100 mg/kg, MA60 100 mg/kg oral once daily 7 days, 3 h after last treatment; read-out: amount of sanggenon C in serum (dose group)
result type: concentration at 3 h

Look up concentration at 3 h for this compound: "CC(C)=CC[C@]12Oc3cc(O)c([C@H]4C=C(C)C[C@H](c5ccc(O)cc5O)[C@H]4C(=O)c4ccc(O)cc4O)c(O)c3C(=O)[C@@]1(O)Oc1cc(O)ccc12" 7.94 to 31.5 ng/mL

----------
Assay: UPLC-ESI-MS quantitation of sanggenons C and D in serum and tissue samples, acute toxicity study
Type: in vivo, BALB/c mice
Conditions: BALB/c, mouse, serum, oral, 300 mg/kg, MA60 300 mg/kg oral once daily 7 days, 3 h after last treatment; read-out: amount of sanggenon C in serum (dose group)
result type: concentration at 3 h

Look up concentration at 3 h for this compound: CC(C)=CC[C@]12Oc3cc(O)c([C@H]4C=C(C)C[C@H](c5ccc(O)cc5O)[C@H]4C(=O)c4ccc(O)cc4O)c(O)c3C(=O)[C@@]1(O)Oc1cc(O)ccc12 [sanggenon C] 21.2 to 227 ng/mL

----------
Assay: UPLC-ESI-MS quantitation of sanggenons C and D in serum and tissue samples, acute toxicity study
Assay type: in vivo, BALB/c mice
Settings: BALB/c, mouse, serum, oral, 30 mg/kg, MA60 30 mg/kg oral, samples 26-30 in order, 3 h after last treatment; read-out: quantified amount of sanggenon C serum, individual samples
result type: concentration at 3 h (ng/mL)
One number for each entry, in ng/mL.

Look up concentration at 3 h for this compound: "CC(C)=CC[C@]12Oc3cc(O)c([C@H]4C=C(C)C[C@H](c5ccc(O)cc5O)[C@H]4C(=O)c4ccc(O)cc4O)c(O)c3C(=O)[C@@]1(O)Oc1cc(O)ccc12" 4.97
